Attribute: CC50
# measurement.description: in vitro
# particulars: human
Unit µM implied. Number only.

compound	readout.name	unit.descriptor	data.value
CCCCCCCCCCCCCC(=O)O[C@@H]1[C@@H](C)[C@@]2(O)[C@@H](C=C(CO)C[C@]3(O)C(=O)C(C)=C[C@@H]23)[C@@H]2C(C)(C)[C@]12OC(C)=O [Phorbol 12-myristate 13-acetate]	CC50	µM	22.5
CC[C@H]1CN2CCc3cc(OC)c(OC)cc3[C@@H]2C[C@@H]1C[C@H]1NCCc2cc(OC)c(OC)cc21	CC50	µM	8.87
COC(=O)[C@@]12OC[C@]34[C@H]([C@@H](O)[C@@H]1O)[C@@]1(C)CC(=O)C(O)=C(C)[C@@H]1C[C@H]3OC(=O)[C@H](OC(=O)/C=C(\C)C(C)C)[C@@H]24 [Bruceantin]	CC50	µM	0.973

**Query** Quote CC50 reported for C#C[C@]1(O)CC[C@H]2[C@@H]3CCc4cc(OS(=O)(=O)C(C)C)ccc4[C@H]3CC[C@@]21C [ethinyl estradiol sulfonate] please.
**Result** 6.86

----------
# System: SARS-CoV-2
# measurement.description: microbe, parasite or virus in culture
# particulars: Severe acute respiratory syndrome coronavirus 2, HeLa-ACE2, 24 h, read-out: CoV-2 EC50 [μM] (Geomeans, n ≥ 2)
readout.name: EC50 (µM)
Unit µM implied. Number only.

> print(dat)
                                        mol  readout.name  data.value
1  C=CCc1c(OCCCNCc2ccccc2)ccc2c1[nH]c1ccccc12          EC50        1.64

**Query** Quote EC50 reported for `N#Cc1c(N)nc(N)nc1N[C@H](c1nc2c(F)ccc(Cl)c2c(=O)n1-c1cccnc1)C1CC1` please.
**Result** 3.81

**Query** Quote EC50 reported for `CCOc1cc(C(C)(C)C)ccc1C1=N[C@@](C)(c2ccc(Cl)cc2)[C@@](C)(c2ccc(Cl)cc2)N1C(=O)N1CCN(CCCS(C)(=O)=O)CC1` please.
**Result** 3.23

**Query** Quote EC50 reported for `CCN1CCC(c2cc(C)c3nc(-c4cc5c(C)nc(C)cn5n4)cc(=O)n3c2)CC1` please.
**Result** 1.4

----------
# measurement.description: in vitro
# particulars: human
Attribute: CC50

> print(dat)
                                   molecule  data.value
1  NC(N)=Nc1ncc(Cl)c2ccc(-c3cccc(C(=O)O)c3)cc12   > 29.9 µM

**Query** Quote CC50 reported for O=C(c1ccccc1)c1cccc(NC(=O)c2ccn3c2CSC3c2cccnc2)c1 (centres unmarked) please.
**Result** 14.6 µM

**Query** Quote CC50 reported for CSc1ccc(CN2CCCC(Nc3ccc4[nH]ncc4c3)C2)cc1 (centres unmarked) please.
**Result** > 29.9 µM

**Query** Quote CC50 reported for `CCc1ccc(C2=CC(C)(C)Sc3ccc(C#Cc4ccc(C(=O)O)cc4)cc32)cc1` please.
**Result** > 29.9 µM

**Query** Quote CC50 reported for `O=c1[nH]ccc2cc(OC3CCNCC3)ccc12` please.
**Result** > 29.9 µM

----------
Attribute: CC50
# measurement.description: in vitro
# particulars: human, CC50 [μM] (Geomeans, n ≥ 2 except where indicated: *n = 1)

The following compounds have reported results that may help.
> print(dat)
                                   compound  readout.name  data.value
1               O=c1c2ccccc2[se]n1-c1ccccc1          CC50   > 26.6 µM
2  CNC(=O)c1cc(Oc2ccc(NC(=O)Nc3ccc(Cl)c(C(F)(F)F)c3)cc2)ccn1          CC50   > 8.65 µM
3  CN(C)CC1=C[CH]([Fe][CH]2C=CC=C2)C=C1CNc1ccnc2cc(Cl)ccc12 (stereo not shown)          CC50     13.4 µM
4  COc1ccc2cc1Oc1ccc(cc1)C[C@H]1c3cc(c(OC)cc3CCN1C)Oc1c(OC)c(OC)cc3c1[C@H](C2)N(C)CC3          CC50   > 18.9 µM
5  CCCCCCOC(=O)NC(=N)c1ccc(NCc2nc3cc(C(=O)N(CCC(=O)OCC)c4ccccn4)ccc3n2C)cc1 [Dabigatranetexilate mesilate]          CC50   > 26.5 µM
6  NCCc1cn(S(=O)(=O)c2c(Cl)nc3sccn23)c2ccccc12          CC50     7.43 µM

Attention now shifts to the item below.
**Query** Quote CC50 reported for COC(=O)C1=C(C)NC(C)=C(C(=O)OCCCCNC[C@@H](O)COc2ccccc2)C1c1cccc([N+](=O)[O-])c1 (stereo partly shown) please.
**Result** > 20.2 µM
